System: 454973-116-R2-J3-PDC spheroids, viability, % test/control
method.summary: Anticancer human tumor 454973-116-R2-J3-PDC patient-derived pancreatic carcinoma cell line growth inhibition [GQUAD]
assay.setup: second compound 0.1 µM; first compound 0.316 µM; hits give low values; spheroids with HUVEC and MSC
From the text: DNA G-quadruplex Stabilizer Agents in Combinations in Complex Spheroids A high-throughput screen of multi-cell type tumor spheroids was designed to identify active combinations of DNA G-quadruplex stabilizer agents and targeted small molecules. […] Compounds. […] If the clinical Cmax for an agent had not been determined, the highest concentration tested was 10 microM. […]
assay.readout: viability, T/C

These solved cases illustrate the format of a correct answer.
compound | viability, T/C
CC(=O)O[C@H]1C(=O)[C@@]2(C)[C@H]([C@H](OC(=O)c3ccccc3)[C@]3(O)C[C@H](OC(=O)[C@H](O)[C@@H](NC(=O)c4ccccc4)c4ccccc4)C(C)=C1C3(C)C)[C@]1(OC(C)=O)CO[C@@H]1C[C@@H]2O + Cc1[nH]c2ccc(F)cc2c1-c1nc2c3cccnc3c3ncccc3c2[nH]1 | 7.87%
CC[C@@]1(O)C(=O)OCc2c1cc1n(c2=O)Cc2cc3c(CN(C)C)c(O)ccc3nc2-1 + Cc1[nH]c2ccc(F)cc2c1-c1nc2c3cccnc3c3ncccc3c2[nH]1 | 21.8%

Request: Given the compound CCCS(=O)(=O)Nc1ccc(F)c(C(=O)c2c[nH]c3ncc(-c4ccc(Cl)cc4)cc23)c1F + CN(C)c1ccc(Nc2c3ccc(NC(=O)CCN4CCCC4)cc3nc3cc(NC(=O)CCN4CCCC4)ccc23)cc1 , what is its reported viability, T/C?
Response: 103%

====

Entries and their viability, T/C
Tested on: 454973-116-R2-J3-PDC spheroids, viability, % test/control
method.summary: Anticancer human tumor 454973-116-R2-J3-PDC cell line growth inhibition [GQUAD];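 further: spheroids exposed to compounds for seven days; 100% = DMSO vehicle control viability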
assay.setup: second compound 0.1 µM; first compound 0.316 µM; hits give low values; spheroids with HUVEC and MSC
Excerpt: DNA G-quadruplex Stabilizer Agents in Combinations in Complex Spheroids A high-throughput screen of multi-cell type tumor spheroids was designed to identify active combinations of DNA G-quadruplex stabilizer agents and targeted small molecules. […] Compounds. […] If the clinical Cmax for an agent had not been determined, the highest concentration tested was 10 microM. […]
Return type: number; implicit unit %.

Below, 4 compounds whose answers are already recorded.
compound | viability, T/C [%]
CC(C)(O)C1CCC(Nc2ccc3ncc(-c4cccc(C(F)(F)F)c4)n3n2)CC1 (stereo not given) + Cc1cnc(CNC(=O)c2c(=O)c3ccc(N4CCCN(C)CC4)nc3n3c2sc2ccccc23)cn1 | 85.4
Cn1ncnc1[C@H]1c2n[nH]c(=O)c3cc(F)cc(c23)N[C@@H]1c1ccc(F)cc1 + Cc1[nH]c2ccc(F)cc2c1-c1nc2c3cccnc3c3ncccc3c2[nH]1 | 77.6
Cc1[nH]c2ccccc2c1CCNCc1ccc(/C=C/C(=O)NO)cc1 + CN(C)c1ccc(Nc2c3ccc(NC(=O)CCN4CCCC4)cc3nc3cc(NC(=O)CCN4CCCC4)ccc23)cc1 | 6.22
COc1ccc([C@@H](O)c2cc(-c3ncnc4cc(N5CCOCC5)ccc34)c(F)cc2Cl)nn1 + CN(C)c1ccc(Nc2c3ccc(NC(=O)CCN4CCCC4)cc3nc3cc(NC(=O)CCN4CCCC4)ccc23)cc1 | 101

Request: Look up viability, T/C for this compound: CC[C@@]1(O)C(=O)OCc2c1cc1n(c2=O)Cc2cc3c(CN(C)C)c(O)ccc3nc2-1 + CN(C)c1ccc(Nc2c3ccc(NC(=O)CCN4CCCC4)cc3nc3cc(NC(=O)CCN4CCCC4)ccc23)cc1
Response: 20.5
